system.under.test: estrogen receptors (Homo sapiens, UniProt P03372)
Construct: estrogen receptor extracted from MCF-7 human breast tumor cells; endogenous in cells; host or cells: MCF-7 human breast cancer cells (nuclear extract, cytosol or whole cell extract)
Sequence (P03372 whole entry): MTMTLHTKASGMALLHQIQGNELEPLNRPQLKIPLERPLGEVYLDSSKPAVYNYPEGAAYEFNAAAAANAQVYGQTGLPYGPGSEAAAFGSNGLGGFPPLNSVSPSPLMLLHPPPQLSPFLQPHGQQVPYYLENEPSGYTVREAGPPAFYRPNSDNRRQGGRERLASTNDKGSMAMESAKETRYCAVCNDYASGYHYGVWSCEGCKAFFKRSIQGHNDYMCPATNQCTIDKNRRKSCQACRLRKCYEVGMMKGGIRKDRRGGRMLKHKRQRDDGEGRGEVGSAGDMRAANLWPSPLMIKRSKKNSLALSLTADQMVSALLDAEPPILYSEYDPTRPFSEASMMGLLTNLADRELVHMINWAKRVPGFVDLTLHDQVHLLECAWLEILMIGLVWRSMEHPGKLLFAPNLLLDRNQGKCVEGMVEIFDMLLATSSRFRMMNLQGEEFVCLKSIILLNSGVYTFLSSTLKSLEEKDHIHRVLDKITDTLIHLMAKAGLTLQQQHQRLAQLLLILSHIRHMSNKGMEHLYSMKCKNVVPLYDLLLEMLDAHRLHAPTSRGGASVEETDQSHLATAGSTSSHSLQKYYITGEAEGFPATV
assay.notes: Quantification of estrogen receptors in nuclear and whole cell extracts (ER-EIA monoclonal kit), Table 1
Assay type: cell-based, human (MCF-7 human breast cancer cells)
study.conditions: estrogen receptors in nuclear extracts
property.name: IC50 (µM)

Study these solved cases before continuing.
# molecule, system.under.test, units.of.measure, IC50
measured = [
    ("CCN(CC)C(=O)CCCCCCCNC(=O)Cc1c(C)n(C(=O)c2ccc(Cl)cc2)c2ccc(O)cc12 [MDL 104,631]", "estrogen receptors (Homo sapiens, UniProt P03372)", "µM", 16),
    ("CCCCN(C)C(=O)CCCCCCCNC(=O)Cc1c(-c2ccc(OC(C)=O)cc2)n(Cc2ccccc2)c2ccc(OC(C)=O)cc12 [MDL 104,401]", "estrogen receptors (Homo sapiens, UniProt P03372)", "µM", 28),
    ("CCCCNC(=O)CCCCCCCNC(=O)Cc1c(-c2ccc(O)cc2)n(Cc2ccccc2)c2ccc(O)cc12 [MDL 104,262]", "estrogen receptors (Homo sapiens, UniProt P03372)", "µM", 25),
    ("CCCCN(C)C(=O)CCCCCCCNC(=O)Cc1cn(Cc2ccccc2)c2ccc(F)cc12 [MDL 104,822]", "estrogen receptors (Homo sapiens, UniProt P03372)", "µM", 12),
    ("CCCCN(C)C(=O)CCCCCNC(=O)Cc1c(-c2ccc(O)cc2)n(Cc2ccccc2)c2ccc(O)cc12 [MDL 104,982]", "estrogen receptors (Homo sapiens, UniProt P03372)", "µM", 20),
]

[a] CCCCN(C)C(=O)CCCCCCCNC(=O)Cc1c(C)n(C(=O)c2ccc(OC)cc2)c2ccc(O)cc12 [MDL 105,517]
[b] CCCCN(C)C(=O)CCCCCCNC(=O)Cc1c(C)n(CCCc2ccccc2)c2ccc(O)cc12 [MDL 104,261]
# input Of a and b , which one carries the higher reported IC50? Bench note: the answer is the label of the chosen record.
# output b
(b: 23.5 µM, a: 16 µM)
